Target: T1, mouse SEMA4D, full length, on CHO-K1 cells (CHO-K1 mSEMA4D) (mouse, UniProt O09126 24-861)
T1 construct: whole, on cells; also called murine SEMA4D recombinant cells
T1 sequence (looked up): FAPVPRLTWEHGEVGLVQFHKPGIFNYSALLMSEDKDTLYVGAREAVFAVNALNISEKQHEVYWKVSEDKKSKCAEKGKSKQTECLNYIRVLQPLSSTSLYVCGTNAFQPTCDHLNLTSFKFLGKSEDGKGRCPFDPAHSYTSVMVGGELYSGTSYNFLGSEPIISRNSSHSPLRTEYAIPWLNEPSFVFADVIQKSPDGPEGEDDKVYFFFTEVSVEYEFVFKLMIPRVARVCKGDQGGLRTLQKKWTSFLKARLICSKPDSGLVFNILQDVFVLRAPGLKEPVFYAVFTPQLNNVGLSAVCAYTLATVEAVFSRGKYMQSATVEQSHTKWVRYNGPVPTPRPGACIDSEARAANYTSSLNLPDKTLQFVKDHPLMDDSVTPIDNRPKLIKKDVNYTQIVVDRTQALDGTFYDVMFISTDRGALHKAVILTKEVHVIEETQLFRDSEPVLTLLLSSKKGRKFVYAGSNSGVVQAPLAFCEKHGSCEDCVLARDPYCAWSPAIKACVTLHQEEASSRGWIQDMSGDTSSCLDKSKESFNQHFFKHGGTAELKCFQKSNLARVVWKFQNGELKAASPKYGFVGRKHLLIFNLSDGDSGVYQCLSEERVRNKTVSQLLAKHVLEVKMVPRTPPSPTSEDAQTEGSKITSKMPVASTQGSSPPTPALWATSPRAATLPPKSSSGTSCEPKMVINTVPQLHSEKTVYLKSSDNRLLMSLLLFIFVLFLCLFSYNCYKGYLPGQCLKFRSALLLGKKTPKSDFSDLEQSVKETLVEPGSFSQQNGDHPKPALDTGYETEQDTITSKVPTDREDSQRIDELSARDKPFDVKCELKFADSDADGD
Assay: FACS, CHO-K1 mSEMA4D cells; Ab 13.3 nM
observed_property: MFI
Keep it simple and answer with nothing but the number.

Below are worked cases with known answers.
31C11G2 (antibody, V domains shown, Mouse monoclonal antibody purified from hybridoma supernatant on protein A) VH: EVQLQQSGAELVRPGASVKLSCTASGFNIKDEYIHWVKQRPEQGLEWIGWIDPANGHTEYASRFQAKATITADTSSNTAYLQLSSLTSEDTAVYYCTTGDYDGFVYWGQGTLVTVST VL: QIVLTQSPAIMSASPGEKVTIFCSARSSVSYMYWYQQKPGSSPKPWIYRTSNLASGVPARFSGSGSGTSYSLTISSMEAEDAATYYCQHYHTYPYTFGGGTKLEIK; 31.3
42B7G2 (antibody, V domains shown, Mouse monoclonal antibody purified from hybridoma supernatant on protein A) VH: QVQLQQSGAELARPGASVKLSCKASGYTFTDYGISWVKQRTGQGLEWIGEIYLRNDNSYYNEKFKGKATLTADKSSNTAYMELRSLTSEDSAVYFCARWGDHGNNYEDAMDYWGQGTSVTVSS VL: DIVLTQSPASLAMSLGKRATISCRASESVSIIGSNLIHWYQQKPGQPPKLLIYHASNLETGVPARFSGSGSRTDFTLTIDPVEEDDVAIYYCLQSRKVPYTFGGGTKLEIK; 30.7
32C8F10 (antibody, V domains shown, Mouse monoclonal antibody purified from hybridoma supernatant on protein A) VH: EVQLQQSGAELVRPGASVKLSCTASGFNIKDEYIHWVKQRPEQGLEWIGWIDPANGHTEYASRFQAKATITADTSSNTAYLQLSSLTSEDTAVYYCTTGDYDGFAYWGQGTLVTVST VL: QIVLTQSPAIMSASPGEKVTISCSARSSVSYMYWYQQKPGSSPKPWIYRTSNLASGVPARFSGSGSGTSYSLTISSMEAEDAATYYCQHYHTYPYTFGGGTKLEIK; 30.6

Below: the item to evaluate.
Given 37F11F9 (antibody, V domains shown, Mouse monoclonal antibody purified from hybridoma supernatant on protein A) VH: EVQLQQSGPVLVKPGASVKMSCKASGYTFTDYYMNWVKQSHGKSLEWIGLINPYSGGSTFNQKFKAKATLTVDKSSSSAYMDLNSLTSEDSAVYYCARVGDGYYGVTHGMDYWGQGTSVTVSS VL: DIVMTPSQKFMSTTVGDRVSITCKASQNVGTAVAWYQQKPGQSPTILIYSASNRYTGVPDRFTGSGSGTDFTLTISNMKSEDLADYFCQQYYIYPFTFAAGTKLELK , state its recorded MFI.
30.1
